assay: Cmax in CD1 albino mouse brain at 10 mg/kg, ip after 30 mins; format: ADME, organism-based; design: dose 10 mg/kg, route intraperitoneal
quantity: Cmax (ng/g)

>>> reported("N#Cc1ccc(CNC(=O)CCCCCN2CCN(c3ccccc3-c3ccccc3)CC2)cc1")
540
>>> reported("CSc1ccccc1N1CCN(CCCCCC(=O)NC2CCCc3ccccc32)CC1 (configuration not stated)")
580

---

target: 5-hydroxytryptamine receptor 7 (Cavia porcellus, UniProt P50407); assay: Agonist activity at 5HT7 receptor assessed as relaxation of substance P-induced Dunkin-Hartley guinea pig ileum contraction
Sequence (P50407 whole entry): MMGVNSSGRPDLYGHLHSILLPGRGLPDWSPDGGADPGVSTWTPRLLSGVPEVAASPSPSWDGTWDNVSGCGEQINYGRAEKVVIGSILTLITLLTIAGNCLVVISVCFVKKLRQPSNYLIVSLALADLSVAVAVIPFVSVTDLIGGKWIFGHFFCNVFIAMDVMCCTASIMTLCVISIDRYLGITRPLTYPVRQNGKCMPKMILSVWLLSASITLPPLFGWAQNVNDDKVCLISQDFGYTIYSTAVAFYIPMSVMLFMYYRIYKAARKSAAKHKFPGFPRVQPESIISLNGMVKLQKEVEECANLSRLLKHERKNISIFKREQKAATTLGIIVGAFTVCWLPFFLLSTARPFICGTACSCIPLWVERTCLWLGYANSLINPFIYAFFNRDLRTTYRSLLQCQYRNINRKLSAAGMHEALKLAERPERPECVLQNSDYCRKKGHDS
quantity: EC50 (µM)

Here are 2 compounds together with their reported answers.
>>> reported("O=C(CCCCCN1CCN(c2ccccc2-c2ccccc2)CC1)NCc1ccccc1")
4.5
>>> reported("O=C(CCCCCN1CCN(c2ccccc2-c2ccccc2)CC1)N1CCc2ccccc2C1")
0.49

a: N#Cc1ccc(CNC(=O)CCCCCN2CCN(c3ccccc3-c3ccccc3)CC2)cc1
b: O=C(CCCCCN1CCN(c2ccccc2-c2ccccc2)CC1)NCc1ccncc1
Asked: For this pair, a and b , which shows a numerically higher EC50? Returns: label corresponding to the selected item.
Given back: a
(a: 0.6 µM, b: 0.31 µM)
